- assayProcedure: amyloid nucleation score (Sup35N fusion, yeast selection) (log enrichment); library NNK1; higher = more nucleation; inactive = no reads after selection;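 further: zero at mode of non-aggregating sequences after 7 days selection at 30°C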
Param threshold (0.4) applies to amyloid nucleation score; output yes when value >= threshold, no when value < threshold.

Prompt: Confirm if amyloid nucleation score reported for the sequence `YKGNKCCVKMMACWGTGCLP` is 0.4 or above.
Response: yes

Prompt: Does the reported amyloid nucleation score for `LMRYALSIPRRAYVVRRLVM` fall at or above the 0.4 mark?
Response: yes

Prompt: Form field: amyloid nucleation score at least 0.4? Entry: `EALCHMWQYSGCP`
Response: no

Prompt: Check if amyloid nucleation score >= 0.4 (inclusive). Item: `VGFRVDFNIDLQLFLYRNEK`
Response: no

Prompt: Hi, just wondering whether `GNCSMSVGATLEGLMVRVHI` shows amyloid nucleation score of 0.4 or higher.
Response: no

Prompt: Quick check, amyloid nucleation score >= 0.4? `CWASRSSCSLLYVRVVMRHC`
Response: no

Prompt: Reported amyloid nucleation score reaches at least 0.4 for `ESSMLAMVGIQSTWCNVSYG` ?
Response: yes

* * *

- assayProcedure: amyloid nucleation score (Sup35N fusion, yeast selection) (log enrichment); library NNK1; higher = more nucleation; inactive = no reads after selection
measurementName: amyloid nucleation score

# example entries with known answers
# chain, result
rows = [
    ("LLPGLIEWSVGLMCLIL", 0.023),
    ("SKCCDSSRARVASSYS", 0.261),
    ("HFKRWLVNLFLTEFEKSYGV", -1.28),
    ("VVSSAEQVHLGVVNGRRFLL", -0.003),
    ("RVQKNLINDFSESYPLCHWY", -0.553),
    ("RLFPYQFM", -0.286),
]

Prompt: Consider the sequence shown here: `DCDGVLSLCIMVHEIYRKVG` What is its recorded amyloid nucleation score?
Response: inactive

Prompt: Any idea what its amyloid nucleation score is? The sequence is `KSFNVLCHIAVVPNRWVGRT`
Response: 2.49

Prompt: Quick check: amyloid nucleation score of `IFHGRNYSFSS` ?
Response: -0.422

Prompt: Suppose we examine the sequence `TVYYDSIRSMYGYGGGVASR` ; what amyloid nucleation score value has been reported?
Response: -0.344

Prompt: So what's the measured amyloid nucleation score for this one? `FFQTLDWV`
Response: -1.13

Prompt: Any idea what its amyloid nucleation score is? The sequence is `YVVCRTFSVPAYSLRLQLRR`
Response: 0.353

Prompt: Sample `IKTMISQY` — what was its amyloid nucleation score?
Response: -0.406

Prompt: Given the sequence `GESKHKQSNECTQCC` , what is its reported amyloid nucleation score?
Response: 1.11

Prompt: If you can, please state the reported amyloid nucleation score value of `QSETDQIFEVFFSDWHSCTK` .
Response: 0.777

Prompt: Can you share its amyloid nucleation score? I mean this sequence: `FSSEVRVWVWNCCFNRFSCI`
Response: 4.74

Prompt: # query: amyloid nucleation score of entry `CLFSRELTLSPLWDLVK`
Response: 1.79

Prompt: What value of amyloid nucleation score has been reported for the following sequence? `RLLRPFGWLANSRLTTVWFH`
Response: -0.122

Prompt: For `HCHSPATKPALTLMMY` , what is its reported amyloid nucleation score?
Response: -0.738

Prompt: Returns the measured amyloid nucleation score for the input sequence. Input: `LICNFRLSRYQSAVNVVYWV`
Response: 0.802

Prompt: Entry `IPTLRSPVNRWPRITMKVWL` : reported amyloid nucleation score = ?
Response: -0.161

Prompt: Fill in the blank: the reported amyloid nucleation score of `GRWWRLLLYCLVAVLAFVGF` is ____.
Response: 1.33

Prompt: Quick check: amyloid nucleation score of `TRFNFMGLYNLRMVN` ?
Response: -0.777

Prompt: # get_value(readout='amyloid nucleation score', item= `SYMNGKWMSMWVRLWGCLAF` )
Response: 0.004

Prompt: Record request: amyloid nucleation score value, item `LTSFSTDPISGLLAGCFSID`
Response: inactive

Prompt: Which amyloid nucleation score is reported for this sequence? `CGGFGMIFYL`
Response: 3.03

Prompt: # input sequence: `FQIRSRISIDCVMVNRDELS` ; wanted: its amyloid nucleation score
Response: 1.41

* * *

- assayProcedure: amyloid nucleation score (Sup35N fusion, yeast selection) (log enrichment); library NNK3; higher = more nucleation; inactive = no reads after selection
measurementName: amyloid nucleation score

# substance, amyloid nucleation score
data = [
    ("LRVLAP", 0.815),
    ("YCTWAYRVYSYSGCTMMIVL", "inactive"),
    ("RARLHSVAINDVHSFTVSLG", 0.004),
    ("GSSRCNGRLWSAG", "inactive"),
    ("SACEMWATRHKNWRASGYNH", "inactive"),
]

Turning now to a further record.
Prompt: Fill in the blank: the reported amyloid nucleation score of `LDGRYKYILFLLPLCRW` is ____.
Response: inactive

* * *

- assayProcedure: amyloid nucleation score (Sup35N fusion, yeast selection) (log enrichment); library NNK2; higher = more nucleation; inactive = no reads after selection
measurementName: amyloid nucleation score

Worked examples follow.
# substance, amyloid nucleation score
measured = [
    ("HLYCRALILLVVLPGYTQLL", -1.07),
    ("VMSFHWCVVSSVPWDCQACH", 3.93),
    ("DLVVELGESQQPWPLVRSRP", 0.6),
    ("VVYSSRLRSDA", 1.12),
    ("DATNQRYVPRLFHKMSITGS", 0.848),
]

Prompt: I have this substance here, `MFNCTQSVLPLGF` , and I need its recorded amyloid nucleation score.
Response: inactive

Prompt: What value of measured amyloid nucleation score is listed for `RSSQTPFWEIGSMLLSKMCA` ?
Response: 0.65

Prompt: Reported amyloid nucleation score, substance `SNEGWIKCWILYFVFGAWMI` : ____
Response: -0.896

Prompt: Find the recorded amyloid nucleation score belonging to `TDYHMFYRLDCLPLTTTCPV` and report it.
Response: 4.88

Prompt: Give its amyloid nucleation score value. Item: `KQGKRSTAHRSIVPLSFRH`
Response: 1.58

Prompt: # input substance: `YCNNYG` ; wanted: its amyloid nucleation score
Response: -2.65

Prompt: # amyloid nucleation score lookup, item `NKDRGGRYSICRNYANPFVA`
Response: 0.034

Prompt: Find the recorded amyloid nucleation score belonging to `YWGIRVCSDFGIPEFRTS` and report it.
Response: 2.05

Prompt: Look up amyloid nucleation score: `WSRFSCRT`
Response: 1.24

Prompt: Entry `LYIHVDWLAWKTHVRQTKVT` has what amyloid nucleation score?
Response: -0.455

Prompt: # input substance: `TMSQYLGNRCTTNGYSFGVS` ; wanted: its amyloid nucleation score
Response: -0.272

Prompt: Could you tell me which amyloid nucleation score is on file for `LCQIANNSVGLRKDQEGLR` ?
Response: 0.375

Prompt: I would be grateful if you could share the reported amyloid nucleation score for `RLSRYFLRFWWAYDYDSN` .
Response: 0.101

Prompt: What does the data say about its amyloid nucleation score? Entry: `DKFMLVSCVYSDNLLVIYSG`
Response: inactive

Prompt: Consider the substance shown here: `DFCWAFRAASLSRGVRLAAV` What is its recorded amyloid nucleation score?
Response: 3.23

Prompt: So what's the measured amyloid nucleation score for this one? `LYNCVRYSSYLFNVVPCRGG`
Response: inactive

Prompt: Which measured amyloid nucleation score value corresponds to `SFSRSSAYVVHVLGYLEFRT` ?
Response: -0.004

Prompt: Given the entry `LEGGGGFSRAL` , report its measured amyloid nucleation score.
Response: -0.651

Prompt: Request the reported amyloid nucleation score associated with `NCLMLVGNIFWSEESPRLAM`
Response: 8.04

Prompt: // returns reported amyloid nucleation score for input `CVLGAVYLHRLTDGCDVKFT`
Response: 0.762

Prompt: Which amyloid nucleation score is reported for this substance? `MLVVLWQSARRSVTIIKVRT`
Response: 0.546

Prompt: Quick check: amyloid nucleation score of `YGDCLRLTDSYVSIFTRVPT` ?
Response: 0.159

Prompt: Name the reported amyloid nucleation score value associated with the substance `RTRTYL`
Response: inactive

* * *

- assayProcedure: amyloid nucleation score (Sup35N fusion, yeast selection) (log enrichment); library NNK3; higher = more nucleation; inactive = no reads after selection
measurementName: amyloid nucleation score

For orientation, consider the following solved cases.
# substance, amyloid nucleation score
measured = [
    ("IKEFLCLDLCQGGGLLSLMV", "inactive"),
    ("RPRFWICMSYMEQSSDNRRT", 1.37),
    ("LINGTGDRMYTDLLL", "inactive"),
    ("IDSCLQNSP", "inactive"),
    ("KGYRINSNFNKFNKPLCSAI", "inactive"),
    ("CRVPSLVIC", "inactive"),
    ("ALVAKVVIGSRW", 0.569),
    ("SAWHIRVERIGVMYRVHCYD", 0.747),
    ("FISRRIRNVILWCYFM", "inactive"),
    ("DYVCYLILVLEASRRNCRSS", "inactive"),
]

Prompt: Reported amyloid nucleation score, substance `ASVKGDRDDELSIKYVFGVG` : ____
Response: inactive

Prompt: Form field: reported amyloid nucleation score of `FRNVGMLGSNLGFGINNDIN`
Response: inactive

Prompt: Requested field: amyloid nucleation score. Item: `PTATRGPMTLRSHASHHRTL`
Response: inactive

Prompt: # lookup: amyloid nucleation score of `DWHAIFTMFECNMQRGKSAR`
Response: 0.113

Prompt: What value of amyloid nucleation score has been recorded for this entry: `KSTICACTLIMVNTPFMLSM`
Response: 1.36
